Value source: ChEMBL document CHEMBL1146242

Consider the following compounds and their measured MIC readings.
system: Staphylococcus aureus; experiment: Antimicrobial activity against Staphylococcus aureus ATCC 25923 by agar dilution method; format: functional
REPORTED ENDPOINT: MIC

- MOLECULE: "CC(=O)OC[C@H]1CN(c2ccc(N3CCN(c4ccc([N+](=O)[O-])s4)CC3)c(F)c2)C(=O)O1"
  STUDY TARGET: "Staphylococcus aureus"
  RESULT: "0.5 µg/mL"
- MOLECULE: "CC(=O)NC[C@H]1CN(c2ccc(N3CCN(c4ccc([N+](=O)[O-])s4)CC3)c(F)c2)C(=O)O1"
  STUDY TARGET: "Staphylococcus aureus"
  RESULT: "0.25 µg/mL"
- MOLECULE: "O=C1O[C@@H](CO)CN1c1ccc(N2CCN(c3ccc([N+](=O)[O-])s3)CC2)c(F)c1"
  STUDY TARGET: "Staphylococcus aureus"
  RESULT: "0.5 µg/mL"
- MOLECULE: "Cc1ccccc1S(=O)(=O)NC(=O)OC[C@H]1CN(c2ccc(N3CCN(c4ccc([N+](=O)[O-])s4)CC3)c(F)c2)C(=O)O1"
  STUDY TARGET: "Staphylococcus aureus"
  RESULT: "16 µg/mL"

###

system: Enterococcus faecalis; experiment: Antimicrobial activity against Enterococcus faecalis ATCC 29212 by agar dilution method; assay type: functional
REPORTED ENDPOINT: MIC (µg/mL)

- MOLECULE: "CC(=O)NC[C@H]1CN(c2ccc(N3CCN(c4ccc([N+](=O)[O-])s4)CC3)c(F)c2)C(=O)O1"
  STUDY TARGET: "Enterococcus faecalis"
  REPORTED ENDPOINT: "MIC"
  UNIT SPEC: "µg/mL"
  QUANTITATIVE READOUT: 0.25
- MOLECULE: "Cc1ccccc1S(=O)(=O)NC(=O)OC[C@H]1CN(c2ccc(N3CCN(c4ccc([N+](=O)[O-])s4)CC3)c(F)c2)C(=O)O1"
  STUDY TARGET: "Enterococcus faecalis"
  REPORTED ENDPOINT: "MIC"
  UNIT SPEC: "µg/mL"
  QUANTITATIVE READOUT: 8
- MOLECULE: "O=C1O[C@@H](CO)CN1c1ccc(N2CCN(c3ccc([N+](=O)[O-])s3)CC2)c(F)c1"
  STUDY TARGET: "Enterococcus faecalis"
  REPORTED ENDPOINT: "MIC"
  UNIT SPEC: "µg/mL"
  QUANTITATIVE READOUT: 0.5
- MOLECULE: "CC(=O)OC[C@H]1CN(c2ccc(N3CCN(c4ccc([N+](=O)[O-])s4)CC3)c(F)c2)C(=O)O1"
  STUDY TARGET: "Enterococcus faecalis"
  REPORTED ENDPOINT: "MIC"
  UNIT SPEC: "µg/mL"
  QUANTITATIVE READOUT: 0.5

###

Entries and their MIC
tested on: Streptococcus pyogenes; assay: Antimicrobial activity against Streptococcus pyogenes ATCC 19615 by agar dilution method; assay type: functional

- COMPOUND: "Cc1ccccc1S(=O)(=O)NC(=O)OC[C@H]1CN(c2ccc(N3CCN(c4ccc([N+](=O)[O-])s4)CC3)c(F)c2)C(=O)O1"
  UNIT SPEC: "µg/mL"
  MIC: 0.5
- COMPOUND: "CC(=O)NC[C@H]1CN(c2ccc(N3CCN(c4ccc([N+](=O)[O-])s4)CC3)c(F)c2)C(=O)O1"
  UNIT SPEC: "µg/mL"
  MIC: 0.125
- COMPOUND: "CC(=O)OC[C@H]1CN(c2ccc(N3CCN(c4ccc([N+](=O)[O-])s4)CC3)c(F)c2)C(=O)O1"
  UNIT SPEC: "µg/mL"
  MIC: 0.25
- COMPOUND: "CC(=O)NC[C@H]1CN(c2ccc(N3CCOCC3)c(F)c2)C(=O)O1 [LINEZOLID]"
  UNIT SPEC: "µg/mL"
  MIC: 2
- COMPOUND: "O=C1O[C@@H](CO)CN1c1ccc(N2CCN(c3ccc([N+](=O)[O-])s3)CC2)c(F)c1"
  UNIT SPEC: "µg/mL"
  MIC: 0.5
